Entry source: a melting point compilation (Tetko et al.; mined from patent text by program, amines drawn as free bases though some values may be those of a salt)

parameter.measured: melting point

Answered cases to consult:
>>> value("CC(C)(C)OC(=O)N1CCC(=CC(=O)NCc2ccc(F)c(F)c2)CC1")
"102 to 105 °C"
>>> value("CCC(C)(C)Nc1c(NCc2cccc(Cl)c2C)c(=O)c1=O")
"236 to 237 °C"

Prompt line: What does the data say about its melting point? Entry: CN1C(=O)CSc2ccc(Cl)cc21
Response line: 119 to 121 °C

Prompt line: What does the data say about its melting point? Entry: CNC(=O)[C@H](Cc1ccccc1)NC(=O)[C@H](CC(C)C)N[C@H](CCN(C(=O)OCc1ccccc1)C(=O)OCc1ccccc1)C(=O)OC(C)(C)C
Response line: 95 to 99 °C

Prompt line: What does the data say about its melting point? Entry: O=C(c1cccc(Nc2nc(-c3ccccc3)nc3ccccc23)c1)N1CCN(c2ncc(Cc3ccccc3)cn2)CC1
Response line: 214 to 215 °C

Prompt line: What does the data say about its melting point? Entry: CCOC(=O)CCCOc1ccc(C=Cc2ccncc2)cc1
Response line: 83 to 85 °C

###

parameter.measured: melting point

>>> value("O=C(O)Cc1ccc(Cn2cc(C(=O)C(=O)NC3=CC(=O)OC3)c3ccccc32)cc1")
"> 270 °C"
>>> value("CN(C)C=NS(=O)(=O)c1cc(Br)cc(Br)c1")
"157 to 158 °C"

Prompt line: What does the data say about its melting point? Entry: CC(=O)N1CCN(c2ccc(N=CNc3cc(Cl)cc(C(=Cc4ccccc4Cl)C(N)=O)c3)cc2)CC1
Response line: 259 to 260 °C

Prompt line: What does the data say about its melting point? Entry: COc1cccc(C=O)c1Oc1ccc([N+](=O)[O-])cc1
Response line: 130 to 131 °C

Prompt line: What does the data say about its melting point? Entry: O=CN1CCN(C(=O)COc2cc(-c3ccccc3)nc3ccccc23)CC1
Response line: 170 °C

###

Listed next: entries and their corresponding melting point.

Answered cases to consult:
>>> value("CCCCOc1ccc(S(=O)(=O)C2(C(=O)NO)CCN(Cc3ccccn3)CC2)cc1")
"118 °C"
>>> value("O=C1CCC(=NNc2ccccc2)c2ncccc2N1")
"206 °C"
>>> value("Oc1ccc(-c2c3ccccc3cc3sc4ccccc4c23)cc1")
"112 to 116 °C"
>>> value("COC(=O)C1Oc2ccc(Cl)cc2C(Cc2ccccc2)(c2ccccc2)O1 (stereo unspecified)")
"110 °C"
>>> value("COC(=O)c1ccc(-c2cc(-c3ccccc3)no2)cc1")
"205 to 206 °C"
>>> value("Nc1ccc(Oc2ccc([N+](=O)[O-])cc2)cn1")
"132 to 135 °C"

Prompt line: What does the data say about its melting point? Entry: CC(=O)c1c(-c2ccncc2)[nH]c(-c2ccccc2)c1C
Response line: 208 to 209 °C

Prompt line: What does the data say about its melting point? Entry: O=C(/C=C/c1cccc(S(=O)(=O)N2CCN(c3cccc(C(F)(F)F)c3)CC2)c1)NO
Response line: 173 °C

Prompt line: What does the data say about its melting point? Entry: NC(=O)c1cc([N+](=O)[O-])cnc1C(Cl)Cl
Response line: 125 to 127 °C

Prompt line: What does the data say about its melting point? Entry: CC1Oc2ccc(CN3CCN(c4nc5c(c(=O)n(C)c(=O)n5C)n4C)CC3)cc2NC1=O (stereo unspecified)
Response line: 130 to 138 °C

Prompt line: What does the data say about its melting point? Entry: CN(C)C(=O)N(C)c1nnc(S(=O)(=O)N(C)C)s1
Response line: 101 to 103 °C

Prompt line: What does the data say about its melting point? Entry: Cn1cc(Br)cc(Nc2ccn(CCO[Si](C)(C)C(C)(C)C)n2)c1=O
Response line: 96 to 97 °C

Prompt line: What does the data say about its melting point? Entry: CCOC(=O)c1ccc(N=CN(C)c2ccc(C(=O)OCC)cc2)cc1
Response line: 89 to 91 °C

Prompt line: What does the data say about its melting point? Entry: COC(=O)NN=Cc1ccc(Oc2ccc(F)cc2)cc1
Response line: 109 to 111 °C

Prompt line: What does the data say about its melting point? Entry: O=C(C=Cc1ccc(CNCC2CCCCC2O)cc1)Nc1ccc(-c2ccc(Cl)cc2)cc1 (stereo unspecified)
Response line: 210 to 211 °C

Prompt line: What does the data say about its melting point? Entry: O=C(Nc1cccc(F)c1)c1cccc(Oc2cccc(C(F)(F)F)c2)n1
Response line: 74 to 75 °C

Prompt line: What does the data say about its melting point? Entry: NS(=O)(=O)c1ccc(C2CCNCC2)cc1
Response line: 229 to 230 °C

Prompt line: What does the data say about its melting point? Entry: COc1ccc2oc(-c3csc(C)n3)cc2c1
Response line: 136 to 137 °C

Prompt line: What does the data say about its melting point? Entry: O=C1c2ccccc2C(=O)c2c1ccc1[nH]c(=O)c(=O)[nH]c21
Response line: 245 to 246 °C

Prompt line: What does the data say about its melting point? Entry: c1ccc(CCN2CCN(c3nc4cccc5c4n3CCC5)CC2)cc1
Response line: 112 to 113 °C

Prompt line: What does the data say about its melting point? Entry: Cc1ccc(S(=O)(=O)NC(=O)OCCc2ccc(-n3c(-c4ccccc4)nc4c(C)nc(C)cc43)cc2)cc1
Response line: 194 °C

Prompt line: What does the data say about its melting point? Entry: O=c1[nH]c2ccccc2cc1-c1csc(-c2ccncc2)n1
Response line: 241 to 243 °C

Prompt line: What does the data say about its melting point? Entry: COC(=O)c1cc(C(=O)O)nc2cc(Cl)cc(Cl)c12
Response line: 169 to 171 °C

Prompt line: What does the data say about its melting point? Entry: COC(=O)Cc1ccc(OCCNC(=O)[C@@H]2Cc3ccccc3N2S(=O)(=O)c2ccc(OC(C)(C)C)cc2)cc1
Response line: 45 to 48 °C

Prompt line: What does the data say about its melting point? Entry: CCN(CC)CCc1cccc(Nc2ncc3c(n2)N(c2cccc(C(N)=O)c2)C(=O)N(c2ccc(OC)cc2)C3C)c1 (stereo unspecified)
Response line: 170 to 175 °C

Prompt line: What does the data say about its melting point? Entry: O=C(O)c1ccc(F)c(F)c1Nc1ccc(I)cc1Cl
Response line: 226 to 227 °C
